Values were extracted from patent US20040102622A1.

# System: human hepatocyte growth factor receptor mRNA
# Assay Info: Inhibition of human hepatocyte growth factor receptor mRNA levels in T-24 cells, quantitative real-time PCR
# Conditions Used: averages from three experiments
Strand notation (5' to 3'): a small letter for the sugar, then the base; units joined by * are phosphorothioate-linked, units joined directly phosphodiester-linked; [ ] holds rarer units or linkages, { } end groups; capitals alone tell only the bases. e = 2'-O-(2-methoxyethyl) (MOE); [5mC] = 5-methylcytosine; d = 2'-deoxy (DNA)
Assay Endpoint: % INHIB (inhibition of human hepatocyte growth factor receptor mRNA levels) (%)
Please state the figure in %; there is no need to write the unit.

Example results:
| Substance | Recorded Value |
| --- | --- |
| 155130 (antisense eT*e[5mC]*eT*e[5mC]*eT*dG*dA*dA*d[5mC]*dT*d[5mC]*dA*dG*dG*dT*eA*eA*eA*eA*e[5mC]) [compound 155130] | 83 |
| 155108 (antisense eA*eT*eT*e[5mC]*eT*d[5mC]*dG*dG*dG*dA*d[5mC]*dA*d[5mC]*dT*dA*eA*e[5mC]*eT*eG*eA) [compound 155108] | 79 |
| 155102 (antisense eG*eA*eG*eA*eG*dG*d[5mC]*dA*dT*dT*dG*dA*d[5mC]*dT*dG*e[5mC]*eA*eG*eG*eA) [compound 155102] | 35 |
| 209539 (antisense eG*e[5mC]*eT*eT*e[5mC]*d[5mC]*d[5mC]*d[5mC]*dA*dT*dT*dG*d[5mC]*dT*dG*eT*eT*eA*eG*eG) [compound 209539] | 57 |
| 155131 (antisense e[5mC]*eA*eA*eT*eT*dT*dG*dG*d[5mC]*dA*dA*dG*dG*dA*dG*e[5mC]*eA*eA*eA*eG) [compound 155131] | 0 |
| 209552 (antisense eT*eG*eA*eA*eA*d[5mC]*dT*dT*dT*d[5mC]*dT*dA*dG*dG*dT*eG*eG*eA*eG*eA) [compound 209552] | 0 |
| 155111 (antisense eG*eT*eT*e[5mC]*eG*dG*d[5mC]*dA*dG*dA*dA*dT*d[5mC]*dT*dG*eG*e[5mC]*eT*eT*eG) [compound 155111] | 86 |
| 155117 (antisense eG*eT*eA*eG*eA*dT*dT*dG*d[5mC]*dA*dG*dG*d[5mC]*dA*dG*eA*e[5mC]*eA*eG*eA) [compound 155117] | 75 |

Please examine the following record next.
Reported % INHIB (inhibition of human hepatocyte growth factor receptor mRNA levels) for 155103 (antisense eT*eG*eG*eG*eA*dA*dG*d[5mC]*dT*dG*dA*dT*dA*d[5mC]*dT*eT*e[5mC]*eA*eT*eA) [compound 155103] : what is it? 86

---

# System: human hepatocyte growth factor receptor mRNA
# Assay Info: Inhibition of human hepatocyte growth factor receptor mRNA levels in T-24 cells, quantitative real-time PCR
# Conditions Used: averages from three experiments
Strand notation (5' to 3'): a small letter for the sugar, then the base; units joined by * are phosphorothioate-linked, units joined directly phosphodiester-linked; [ ] holds rarer units or linkages, { } end groups; capitals alone tell only the bases. e = 2'-O-(2-methoxyethyl) (MOE); [5mC] = 5-methylcytosine; d = 2'-deoxy (DNA)
Class yes: % INHIB (inhibition of human hepatocyte growth factor receptor mRNA levels) at least 80%. Class no: % INHIB (inhibition of human hepatocyte growth factor receptor mRNA levels) below 80%.

| Substance | Category Label |
| --- | --- |
| 209525 (antisense e[5mC]*eT*eG*eG*eT*d[5mC]*d[5mC]*dG*dT*d[5mC]*dA*dA*dA*dA*dA*e[5mC]*eA*eT*eA*eA) [compound 209525] | yes |
| 155125 (antisense eG*eG*eA*eA*eA*d[5mC]*dT*dG*dA*dT*d[5mC]*dT*dT*d[5mC]*dT*eG*eG*eA*eA*eA) [compound 155125] | no |
| 209542 (antisense e[5mC]*eT*eT*eG*e[5mC]*dT*dT*d[5mC]*d[5mC]*dA*d[5mC]*dT*dA*dA*dA*eA*eA*eT*eG*eA) [compound 209542] | no |
| 209555 (antisense eG*e[5mC]*eG*e[5mC]*eG*d[5mC]*dT*dG*d[5mC]*d[5mC]*d[5mC]*dT*dG*d[5mC]*d[5mC]*eA*eG*eT*eG*eA) [compound 209555] | no |
| 209554 (antisense eA*eG*eA*eG*eG*dG*dA*dA*dA*dT*d[5mC]*dG*dG*d[5mC]*d[5mC]*e[5mC]*e[5mC]*e[5mC]*eG*e[5mC]) [compound 209554] | no |

Exam item: decide whether the reported % INHIB (inhibition of human hepatocyte growth factor receptor mRNA levels) for 155116 (antisense eA*eA*eA*eT*e[5mC]*dT*dT*dT*d[5mC]*dA*dT*dG*dA*dT*dG*eA*eT*eT*e[5mC]*e[5mC]) [compound 155116] is at least 80%. no
